Source listed as patent US11584747B2.

- ASSAYED_TARGET: human DGKα (Homo sapiens (Human), UniProt P23743)
- Sequence (P23743 whole entry, looked up): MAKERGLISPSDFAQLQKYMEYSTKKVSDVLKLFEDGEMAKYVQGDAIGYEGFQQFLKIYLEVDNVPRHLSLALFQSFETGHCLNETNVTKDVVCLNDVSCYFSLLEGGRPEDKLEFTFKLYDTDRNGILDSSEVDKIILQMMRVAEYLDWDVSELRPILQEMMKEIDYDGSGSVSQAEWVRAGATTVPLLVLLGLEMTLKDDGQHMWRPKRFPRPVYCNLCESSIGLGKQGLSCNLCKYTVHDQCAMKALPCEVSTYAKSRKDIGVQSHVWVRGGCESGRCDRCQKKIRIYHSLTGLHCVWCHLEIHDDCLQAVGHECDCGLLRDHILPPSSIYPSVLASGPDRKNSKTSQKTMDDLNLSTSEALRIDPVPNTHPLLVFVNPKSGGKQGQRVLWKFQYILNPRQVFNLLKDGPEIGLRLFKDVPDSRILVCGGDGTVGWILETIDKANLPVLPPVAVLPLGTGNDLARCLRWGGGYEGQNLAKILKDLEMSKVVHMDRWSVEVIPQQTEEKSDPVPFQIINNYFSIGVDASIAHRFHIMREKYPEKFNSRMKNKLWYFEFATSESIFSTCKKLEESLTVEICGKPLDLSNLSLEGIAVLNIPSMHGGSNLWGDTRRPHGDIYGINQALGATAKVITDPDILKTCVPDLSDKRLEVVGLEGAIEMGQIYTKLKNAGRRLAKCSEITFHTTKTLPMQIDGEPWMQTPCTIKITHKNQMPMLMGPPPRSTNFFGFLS
- EXPERIMENT_SUMMARY: DGKα ADPGLO assay (detergent/lipid micelle substrate)
- Type: biochemical
- EXPERIMENTAL_CONTEXT: ADPGLO assay; read-out: DGK alpha ADPGLO IC50
pIC50: −log10 of the molar value.
# if value of pIC50 reaches 6, tag 1.0; if it stays below, tag 0.0

**Q:** Given CC[C@@H]1CN(c2nc(=O)n(C)c3ccc(C#N)nc23)[C@@H](C)CN1C(C)c1ccc(C2CCOCC2)cc1 (stereo partly drawn) [Example 329] , state whether its pIC50 is at least 6.
**A:** 0.0

**Q:** Given C[C@@H]1CN(c2nc(=O)n(C)c3ccc(C#N)nc23)[C@@H](C)CN1C(c1ccc(F)cc1)C12CC(C(F)(F)F)(C1)C2 (stereo partly drawn) , state whether its pIC50 is at least 6.
**A:** 1.0

**Q:** Given CC(c1ccc(CN2CCOC(C)(C)C2)cc1)N1C[C@H](C)N(c2nc(=O)n(C)c3ccc(C#N)nc23)C[C@H]1C (single isomer, unassigned) [Example 386] , state whether its pIC50 is at least 6.
**A:** 0.0

**Q:** Given CCC(c1ccc(C2CC2)cc1)N1C[C@H](C)N(c2nc(=O)n(C)c3ccc(C#N)nc23)C[C@H]1C (stereo partly drawn) [Example 378] , state whether its pIC50 is at least 6.
**A:** 1.0

**Q:** Given CC[C@@H]1CN(c2nc(=O)n(C)c3ccc(C#N)nc23)[C@@H](C)CN1C(C)c1ccc(C2CCOCC2)cc1 (stereo partly drawn) [Example 330] , state whether its pIC50 is at least 6.
**A:** 1.0

**Q:** Given CC[C@@H]1CN(c2nc(=O)n(C)c3ccc(C#N)nc23)[C@@H](C)CN1C(c1nnc(C2CC2)o1)C(C)C (single isomer, unassigned) [Example 367] , state whether its pIC50 is at least 6.
**A:** 1.0

====

- ASSAYED_TARGET: human DGKζ (Homo sapiens (Human), UniProt Q13574)
- Sequence (Q13574 other isoform, or with tags, fused parts or gaps): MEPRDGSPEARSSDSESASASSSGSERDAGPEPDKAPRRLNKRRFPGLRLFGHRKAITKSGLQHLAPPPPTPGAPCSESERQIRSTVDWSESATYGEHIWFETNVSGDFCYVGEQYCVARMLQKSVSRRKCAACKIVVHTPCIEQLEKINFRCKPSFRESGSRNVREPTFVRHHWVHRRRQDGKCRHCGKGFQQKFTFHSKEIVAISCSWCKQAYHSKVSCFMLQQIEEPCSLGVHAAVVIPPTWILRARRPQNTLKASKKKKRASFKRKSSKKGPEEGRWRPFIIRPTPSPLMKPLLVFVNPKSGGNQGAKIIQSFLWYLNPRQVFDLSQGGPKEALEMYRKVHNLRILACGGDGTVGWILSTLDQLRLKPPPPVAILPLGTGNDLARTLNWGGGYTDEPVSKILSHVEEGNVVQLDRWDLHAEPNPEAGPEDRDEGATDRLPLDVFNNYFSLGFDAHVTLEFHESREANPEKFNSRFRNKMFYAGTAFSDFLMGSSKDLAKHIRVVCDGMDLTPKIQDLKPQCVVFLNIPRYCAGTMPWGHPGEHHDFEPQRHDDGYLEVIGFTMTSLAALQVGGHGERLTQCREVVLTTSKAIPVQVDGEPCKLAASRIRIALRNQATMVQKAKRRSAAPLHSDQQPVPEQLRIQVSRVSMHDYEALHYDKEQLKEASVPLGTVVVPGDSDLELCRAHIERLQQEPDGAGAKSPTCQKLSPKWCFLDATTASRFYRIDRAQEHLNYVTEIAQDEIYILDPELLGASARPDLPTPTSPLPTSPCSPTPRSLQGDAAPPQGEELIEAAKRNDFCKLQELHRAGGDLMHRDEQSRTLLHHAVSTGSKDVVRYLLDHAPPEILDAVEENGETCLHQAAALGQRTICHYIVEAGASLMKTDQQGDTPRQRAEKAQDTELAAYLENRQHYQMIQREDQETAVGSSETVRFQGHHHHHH
- EXPERIMENT_SUMMARY: DGKζ LIPGLO assay (extruded liposome substrate, ADP-Glo luminescence)
- Format: biochemical
- EXPERIMENTAL_CONTEXT: liposome (LIPGLO) assay; read-out: DGK zeta (liposome assay) IC50
Consider the following molecules; for each one, report its IC50.
Number only, in µM; omit the unit.

**Q:** Can you share its IC50? I mean this molecule: CC[C@H]1CN(C(C)c2ccc(C(F)(F)F)cc2)[C@H](CC)CN1c1nc(=O)n(C)c2ccc(OC)nc12 (single isomer, unassigned) [Example 427]
**A:** 4.45

**Q:** Can you share its IC50? I mean this molecule: CC[C@@H]1CN(c2nc(=O)n(C)c3ccc(C#N)nc23)[C@@H](C)CN1C(c1ccc(F)cc1)c1cccc(C(F)F)n1 (stereo partly drawn) [Example 315]
**A:** 0.19

**Q:** Can you share its IC50? I mean this molecule: CC(c1ccc(CN2CC3(COC3)C2)cc1)N1C[C@H](C)N(c2nc(=O)n(C)c3ccc(C#N)nc23)C[C@H]1C (stereo partly drawn) [Example 392]
**A:** 33.6

**Q:** Can you share its IC50? I mean this molecule: CCC(c1ccc(OCC2COC2)cc1)N1C[C@H](C)N(c2nc(=O)n(C)c3ccc(C#N)nc23)C[C@H]1CC (stereo partly drawn) [Example 342]
**A:** 1.2

**Q:** Can you share its IC50? I mean this molecule: CCC(c1ccc(OC2CC2)cc1)N1C[C@H](C)N(c2nc(=O)n(C)c3ccc(C#N)nc23)C[C@H]1CC (stereo partly drawn) [Example 311]
**A:** 0.006

**Q:** Can you share its IC50? I mean this molecule: CC(c1ccc(C(F)(F)F)cc1)N1C[C@H](C)N(c2nc(=O)n(C)c3ccc(Cl)nc23)C[C@H]1CN=[N+]=[N-] (stereo partly drawn)
**A:** 4.76

**Q:** Can you share its IC50? I mean this molecule: CCC(c1ccc(C2OCCO2)cc1)N1C[C@H](C)N(c2nc(=O)n(C)c3ccc(C#N)nc23)C[C@H]1CC (stereo partly drawn) [Example 332]
**A:** 0.72

**Q:** Can you share its IC50? I mean this molecule: CC(c1ccc(OC(C)(C)C#N)cc1)N1C[C@H](C)N(c2nc(=O)n(C)c3ccc(C#N)nc23)C[C@H]1C (stereo partly drawn) [Example 377]
**A:** 0.37

**Q:** Can you share its IC50? I mean this molecule: CC[C@H]1CN(C(C)c2ccc(C(F)(F)F)cc2)[C@H](CC)CN1c1nc(=O)n(C)c2ccc(OC(F)F)nc12 (stereo partly drawn) [Example 445]
**A:** 2.21

**Q:** Can you share its IC50? I mean this molecule: CC[C@@H]1CN(c2nc(=O)n(C)c3ccc(C#N)nc23)[C@@H](C)CN1C(c1nnc(C2CC2)o1)C(C)C (single isomer, unassigned) [Example 367]
**A:** 0.85

**Q:** Can you share its IC50? I mean this molecule: CCC(c1ccc(C(F)(F)F)cc1)N1C[C@H](CC)N(c2nc(=O)n(C)c3ccc(Cl)nc23)C[C@H]1CC (single isomer, unassigned) [Example 421]
**A:** 0.32

**Q:** Can you share its IC50? I mean this molecule: CCC(C1CC(F)(F)C1)N1C[C@H](C)N(c2nc(=O)n(C)c3ccc(C#N)nc23)C[C@H]1C (stereo partly drawn) [Example 458]
**A:** 6.47

**Q:** Can you share its IC50? I mean this molecule: CCC(c1ccc(C(C)(C)C#N)cc1)N1C[C@H](C)N(c2nc(=O)n(C)c3ccc(C#N)nc23)C[C@H]1CC (stereo partly drawn) [Example 317]
**A:** 0.026

**Q:** Can you share its IC50? I mean this molecule: CC[C@@H]1CN(c2nc(=O)n(C)c3ccc(C#N)nc23)[C@@H](C)CN1C(C)c1ccc(C(F)(F)F)c(CN2CCCCC2)c1 (stereo partly drawn) [Example 355]
**A:** 41.7

**Q:** Can you share its IC50? I mean this molecule: CCC(C1CC(F)(F)C1)N1C[C@H](C)N(c2nc(=O)n(C)c3ccc(C#N)nc23)C[C@H]1C (stereo partly drawn) [Example 457]
**A:** 1.05

**Q:** Can you share its IC50? I mean this molecule: CC(c1ccc(CN2CCC(F)(F)CC2)cc1)N1C[C@H](C)N(c2nc(=O)n(C)c3ccc(C#N)nc23)C[C@H]1C (stereo partly drawn) [Example 390]
**A:** 0.18

**Q:** Can you share its IC50? I mean this molecule: CCC(c1ccc(C(F)(F)F)cc1)N1C[C@H](CC)N(c2nc(=O)[nH]c3ccc(C#N)nc23)C[C@H]1CC (stereo partly drawn) [Example 416]
**A:** 0.74

**Q:** Can you share its IC50? I mean this molecule: CC[C@@H]1CN(c2nc(=O)[nH]c3ccc(C#N)nc23)[C@@H](C)CN1C(C)c1ccc(C(F)(F)F)cc1 (single isomer, unassigned) [Example 413]
**A:** 0.75

====

- ASSAYED_TARGET: human DGKζ (Homo sapiens (Human))
- EXPERIMENT_SUMMARY: DGKζ LIPGLO assay (extruded liposome substrate, ADP-Glo luminescence)
- Assay type: biochemical
- EXPERIMENTAL_CONTEXT: liposome assay; read-out: DGK zeta LIPGLO IC50
MEASURED_METRIC: pIC50
As a rule, pIC50 stands for the negative log10 of the concentration, concentration in M.

**Q:** Item CCC(c1ccc(OC(F)F)cc1)N1C[C@H](CC)N(c2nc(=O)n(C)c3ccc(C#N)nc23)C[C@H]1CC (stereo partly drawn) [Example 223] with human DGKζ (Homo sapiens (Human)) - pIC50?
**A:** 5.68

**Q:** Item CC[C@H]1CN(C(C)c2cnc(N3CCOCC3)nc2)[C@H](CC)CN1c1nc(=O)n(C)c2ccc(C#N)nc12 (stereo partly drawn) [Example 207] with human DGKζ (Homo sapiens (Human)) - pIC50?
**A:** 6.01

**Q:** Item CC[C@H]1CN(C(C)c2ccc(C(C)(C)C#N)cc2)[C@H](CC)CN1c1nc(=O)n(C)c2ccc(C#N)nc12 (stereo partly drawn) [Example 197] with human DGKζ (Homo sapiens (Human)) - pIC50?
**A:** 6.66

**Q:** Item CC[C@H]1CN(C(C)c2ccc3oc(=O)n(C)c3c2)[C@H](CC)CN1c1nc(=O)n(C)c2ccc(C#N)nc12 (stereo partly drawn) [Example 203] with human DGKζ (Homo sapiens (Human)) - pIC50?
**A:** 5.57

**Q:** Item CC[C@H]1CN(C(c2ccc(F)cc2)c2nc(C3CC3)nn2C)[C@H](CC)CN1c1nc(=O)n(C)c2ccc(C#N)nc12 (single isomer, unassigned) [Example 294] with human DGKζ (Homo sapiens (Human)) - pIC50?
**A:** 7.38

**Q:** Item CCC(c1ccc(OC(F)F)cc1F)N1C[C@H](CC)N(c2nc(=O)n(C)c3ccc(C#N)nc23)C[C@H]1CC (stereo partly drawn) [Example 232] with human DGKζ (Homo sapiens (Human)) - pIC50?
**A:** 7.89
